# Protocol summary: Cytotoxicity measurement by MTS staining in PBMC cultures
# Type: cell-based
# Assay setup: human
Measurement kind: CC50 at 7 days

Query string: Which CC50 at 7 days is listed for Cc1cn([C@H]2C[C@H](N=[N+]=[N-])[C@@H](CO)O2)c(=O)[nH]c1=O [AZT, 3′-Azido-3′-deoxythymidine, reference compound] ?
Result string: > 1000 nM
